- system_name: Torsin-1A-interacting protein 2 (Homo sapiens) (UniProt Q8NFQ8)
- Sequence (Q8NFQ8 whole entry, looked up): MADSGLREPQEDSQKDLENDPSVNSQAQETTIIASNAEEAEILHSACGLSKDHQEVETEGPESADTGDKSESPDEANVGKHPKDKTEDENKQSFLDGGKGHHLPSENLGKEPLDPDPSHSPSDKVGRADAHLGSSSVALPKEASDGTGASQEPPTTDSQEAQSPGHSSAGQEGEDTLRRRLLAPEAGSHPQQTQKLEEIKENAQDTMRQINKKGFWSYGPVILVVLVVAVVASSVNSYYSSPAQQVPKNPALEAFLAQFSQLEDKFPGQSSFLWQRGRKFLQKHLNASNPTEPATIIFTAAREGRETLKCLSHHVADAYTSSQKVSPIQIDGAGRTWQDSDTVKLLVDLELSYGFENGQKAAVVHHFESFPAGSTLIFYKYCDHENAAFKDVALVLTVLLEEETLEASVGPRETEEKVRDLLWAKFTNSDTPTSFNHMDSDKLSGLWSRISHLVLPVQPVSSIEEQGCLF
- experiment: LULL1 binders on small-molecule microarray, primary screen, cell lysate, human LULL1 lysate, 635/667 nm fluorescence (AID 1092);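 note: probe is lysate of COS7 cells overexpressing human LULL1; score merges per-feature 667 nm fluorescence with signal-to-noise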
- test_parameters: hLULL1 lysate binding, 635 nm fluorescence, higher = more signal
measurement_name: composite z-score

[
  {
    "molecule": "COCCCNC(=O)[C@@]1(c2ccc([N+](=O)[O-])cc2)CC(=O)N(CC23CC4CC(CC(C4)C2)C3)[C@@H]1c1ccc(CO)cc1",
    "measurement_name": "composite z-score",
    "result_value": 2.28
  },
  {
    "molecule": "C=CCC(OC(C)=O)[C@@H]1[C@@H](N(Cc2ccc(-c3ccccc3)cc2)C(=O)Cc2ccc(F)cc2)c2cc(OCCCO)ccc2N1C(=O)c1ccc2ccccc2n1 (stereo partly drawn)",
    "measurement_name": "composite z-score",
    "result_value": 0.208
  },
  {
    "molecule": "COc1ccc(C#Cc2ccc3c(c2)[C@]2(C(=O)N3)[C@H](c3ccc(O)cc3)N3[C@H](c4ccccc4)[C@H](c4ccccc4)OC(=O)[C@H]3[C@@H]2C(=O)NC[C@H](O)c2ccccc2)cc1",
    "measurement_name": "composite z-score",
    "result_value": 2.17
  },
  {
    "molecule": "CC(C)c1ccc(NN2C(C(O)c3cccc(O)c3)C=CC3C(=O)N(c4ccccc4)C(=O)C32)cc1 (stereo not drawn)",
    "measurement_name": "composite z-score",
    "result_value": 3.62
  },
  {
    "molecule": "COc1ccc(C(O)C2C=CC3C(=O)N(c4ccccc4)C(=O)C3N2Nc2ccc([N+](=O)[O-])cc2)cc1OCc1ccccc1 (stereo not drawn)",
    "measurement_name": "composite z-score",
    "result_value": 2.72
  },
  {
    "molecule": "COc1cc(C(O)C2C=CC3C(=O)N(c4ccccc4)C(=O)C3N2Nc2ccc(C#N)cc2)cc(OC)c1OC (stereo not drawn)",
    "measurement_name": "composite z-score",
    "result_value": 3.84
  },
  {
    "molecule": "[N-]=[N+]=NCc1ccccc1[C@H]1OC(c2ccc(OCCCO)cc2)=N[C@@]1(CCS(=O)(=O)c1ccccc1)C(=O)N1CCOCC1",
    "measurement_name": "composite z-score",
    "result_value": 3.65
  },
  {
    "molecule": "CCCCCCCCCCC(O)C1C=CC2C(=O)N(Cc3ccccc3)C(=O)C2N1n1cnnc1 (stereo not drawn)",
    "measurement_name": "composite z-score",
    "result_value": 2.75
  },
  {
    "molecule": "COC(=O)[C@@]1(Cc2ccc(F)cc2)[C@H]2c3cc(C(=O)N(C)C)n(CCc4ccccn4)c3C[C@H]2CN1C(=O)c1ccccc1",
    "measurement_name": "composite z-score",
    "result_value": 3.94
  },
  {
    "molecule": "C=C[C@@H](COC(C)=O)N(Cc1ccccc1[N+](=O)[O-])S(=O)(=O)c1ccc(Br)cc1",
    "measurement_name": "composite z-score",
    "result_value": 1.43
  },
  {
    "molecule": "O=C1OCCC=C[C@H]2OC34C=CCN(c5ccc6ccccc6c5)C(=O)[C@H]3N(CCCCCO)C(=O)[C@@H]4C12 (stereo partly drawn)",
    "measurement_name": "composite z-score",
    "result_value": 2.42
  },
  {
    "molecule": "[N-]=[N+]=NCc1ccccc1C[C@]1(C(=O)O)N=C(c2ccc(OCCCO)cc2)O[C@H]1c1ccccc1",
    "measurement_name": "composite z-score",
    "result_value": 1.86
  },
  {
    "molecule": "COc1ccc(CCNC(=O)[C@@]2(c3ccc([N+](=O)[O-])cc3)CC(=O)N(CC34CC5CC(CC(C5)C3)C4)[C@@H]2c2ccc(CO)cc2)cc1",
    "measurement_name": "composite z-score",
    "result_value": 2.11
  },
  {
    "molecule": "C=CCC(OC(C)=O)[C@@H]1[C@@H](N(Cc2cccc3ccccc23)C(=O)c2cccc3ccccc23)c2cc(OCCCO)ccc2N1C(=O)c1ccc2ccccc2n1 (stereo partly drawn)",
    "measurement_name": "composite z-score",
    "result_value": 0.681
  },
  {
    "molecule": "Cc1ccc([C@H]2C(C(=O)O)=C[C@@H](C)N2S(=O)(=O)c2ccc(C)cc2)cc1",
    "measurement_name": "composite z-score",
    "result_value": 3.71
  },
  {
    "molecule": "O=C/C=C/c1ccc(Cl)cc1",
    "measurement_name": "composite z-score",
    "result_value": -1.2
  },
  {
    "molecule": "CCCCCN1CC=CC23O[C@@H]4/C=C\\CCCOC(=O)C4[C@H]2C(=O)N(CCCCCCO)[C@@H]3C1=O (stereo partly drawn)",
    "measurement_name": "composite z-score",
    "result_value": 3.32
  },
  {
    "molecule": "O=C1O[C@@H](c2ccccc2)[C@@H](c2ccccc2)N2[C@@H](c3ccc(O)cc3)[C@]3(C(=O)Nc4ccc(C#CC5(O)CCCCCC5)cc43)[C@@H](C(=O)N3CCCCCCC3)[C@H]12",
    "measurement_name": "composite z-score",
    "result_value": 4.45
  },
  {
    "molecule": "CCOc1cc(C(O)C2C=CC3C(=O)N(c4ccccc4)C(=O)C3N2Nc2ccc([N+](=O)[O-])cc2)ccc1O (stereo not drawn)",
    "measurement_name": "composite z-score",
    "result_value": 3.37
  },
  {
    "molecule": "C=CCC(OC(C)=O)[C@@H]1[C@@H](N(Cc2cccc3ccccc23)C(=O)c2ccc(C)cc2)c2cc(OCCCO)ccc2N1C(=O)Cc1ccc(OC)cc1 (stereo partly drawn)",
    "measurement_name": "composite z-score",
    "result_value": -0.204
  },
  {
    "molecule": "[N-]=[N+]=NCc1ccccc1C[C@]1(C(=O)O)N=C(c2ccc(OCCCO)cc2)O[C@H]1c1ccccc1CN=[N+]=[N-]",
    "measurement_name": "composite z-score",
    "result_value": 3.25
  },
  {
    "molecule": "CN(C)CCCNC(=O)[C@@]1(Cc2ccccc2I)c2ccccc2C(=O)N(Cc2ccccc2C(F)(F)F)[C@H]1c1ccc(CO)cc1",
    "measurement_name": "composite z-score",
    "result_value": 3.45
  },
  {
    "molecule": "COc1cc2c(cc1OC)CN(C(=O)[C@@H]1[C@H]3C(=O)O[C@H](c4ccccc4)[C@H](c4ccccc4)N3[C@H](c3ccccc3OCCO)[C@@]13C(=O)Nc1ccc(C#CCNC(N)=O)cc13)CC2",
    "measurement_name": "composite z-score",
    "result_value": 2.61
  },
  {
    "molecule": "Cc1c(NC(=O)CC#N)c(=O)n(-c2ccccc2)n1C",
    "measurement_name": "composite z-score",
    "result_value": 1.16
  },
  {
    "molecule": "CCOC(=O)C1=C[C@@H](C(C)C)N(S(=O)(=O)c2ccc(C)cc2)[C@H]1c1ccc(C(C)C)cc1",
    "measurement_name": "composite z-score",
    "result_value": 3.02
  },
  {
    "molecule": "COc1ccc([Si](C)(C)[C@H]2[C@H](CCn3cc([C@H](O)c4ccccc4)nn3)O[C@@]3(C(=O)N(Cc4cccc(N5CCC5=O)c4)c4ccccc43)[C@@H]2C)cc1",
    "measurement_name": "composite z-score",
    "result_value": 0.276
  },
  {
    "molecule": "COC(=O)[C@@]1(Cc2ccc(OC)cc2)[C@H]2c3cc(C(=O)N(C)C)n(Cc4c(OC)[nH]cc(C)c4=O)c3C[C@H]2CN1C(=O)c1ccccc1",
    "measurement_name": "composite z-score",
    "result_value": 3.62
  },
  {
    "molecule": "O=C1O[C@@H](c2ccccc2)[C@@H](c2ccccc2)N2[C@@H](c3ccc(O)cc3)[C@]3(C(=O)Nc4ccc(C#CC5=CCCCC5)cc43)[C@@H](C(=O)O)[C@H]12",
    "measurement_name": "composite z-score",
    "result_value": 2.86
  }
]
